TARGET DESC: human H1 receptor (Homo sapiens, UniProt P35367)
Construct: purchased Euroscreen SA, Brussels, Belgium ES-390-M; host or cells: recombinant CHO-K1 cells (membranes)
Sequence (P35367 whole entry): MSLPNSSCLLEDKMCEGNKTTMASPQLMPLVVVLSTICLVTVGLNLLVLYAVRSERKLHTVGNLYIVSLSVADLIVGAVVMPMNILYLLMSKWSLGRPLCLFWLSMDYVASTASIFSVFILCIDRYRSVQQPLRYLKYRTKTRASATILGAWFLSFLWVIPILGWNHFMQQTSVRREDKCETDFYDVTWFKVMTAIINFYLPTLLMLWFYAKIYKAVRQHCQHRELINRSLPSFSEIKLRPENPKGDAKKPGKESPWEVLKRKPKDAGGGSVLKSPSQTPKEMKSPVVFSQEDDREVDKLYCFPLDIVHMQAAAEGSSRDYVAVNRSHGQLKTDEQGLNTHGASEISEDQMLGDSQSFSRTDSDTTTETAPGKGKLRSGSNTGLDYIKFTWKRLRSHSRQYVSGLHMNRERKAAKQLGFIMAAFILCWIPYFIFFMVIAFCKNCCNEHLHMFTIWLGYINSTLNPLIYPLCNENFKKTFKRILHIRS
PROCEDURE TEXT: Histamine H1 receptor binding, displacement of [3H]-pyrilamine
MEASUREMENT PARAMETERS: 1 nM [3H]-pyrilamine; membranes of recombinant CHO-K1 cells expressing human H1 receptor; read-out: H1 pKi/[1328_S] (converted)
ENDPOINT: log10 of Ki (log10 of the value in nM)
// stored as log10 of Ki expressed in nM

Here's what some known entries look like.
1. COc1ccccc1C(C(=O)O)N1CCC(CN2CCC(Oc3ccc(Cl)cc3C)CC2)CC1 (stereo not drawn); 2.40
2. O=C(O)C(c1ccccc1)N1CCC(O)(CN2CCC(Oc3ccc(Cl)c(Cl)c3)CC2)CC1 (stereo not drawn); 1.00
3. Cc1ccc(C(C(=O)O)N2CCC(CN3CCC(Oc4ccc(Cl)c(Cl)c4)CC3)CC2)cc1 (stereo not drawn); 1.30
4. Cc1ccccc1C(C(=O)O)N1CCC(CN2CCC(Oc3ccc(Cl)c(Cl)c3)CC2)CC1 (stereo not drawn); 1.90
5. Cc1c(Cl)ccc(OC2CCN(CC3CCN(C(C(=O)O)c4ccccc4)CC3)CC2)c1Cl (stereo not drawn); 1.50
6. COc1ccccc1C(C(=O)O)N1CCC(CN2CCC(Oc3ccc(Cl)c(Cl)c3)CC2)CC1 (stereo not drawn); 2.00

Exercise: Please give the documented log10 of Ki of COc1ccccc1C(C(=O)O)N1CCC(CN2CCC(Oc3ccc(Cl)c(C)c3Cl)CC2)CC1 (stereo not drawn)
Solution: 1.90

Exercise: Give recorded log10 of Ki. "O=C(O)CN1CCC(O)(CN2CCC(Oc3ccc(Cl)c(Cl)c3)CC2)CC1"
Solution: 2.00

Exercise: // Input: "COC(=O)c1ccccc1CN1CCC(CN2CCC(Oc3ccc(Cl)c(Cl)c3)CC2)CC1" . Output its log10 of Ki only.
Solution: 1.00
